experiment: folding stability dG unfold (combined trypsin and chymotrypsin); higher = more stable
property label: folding stability dG unfold (kcal/mol)
Quick reminder: number only, in kcal/mol, skip the unit.

Solved cases below.
{"columns": ["sequence data", "property label", "value reported"],
 "data": [
  ["SAGGSAGGSAGPPVTLDEIRDHLPPENIEDVEVNPPEGWVVIEFKPPGGEKQEITIRADDSAGGSAGGSAGG [r17_374_TrROS]", "folding stability dG unfold", 0.277],
  ["SAGGIEEAIKEGKTVIIRVKVIDKETGKEYERTIEVPANEEISLEELLKALLPPGYEVEIEVVELEPSAGGS [r8_127_TrROS_Hall]", "folding stability dG unfold", 3.65],
  ["SAGGSMDLRVVVVGEDGKVLELPAGEEVSLPDVVAFFSELGDFEVEAHPESGTLTIRVPKGVLEEASAGGSA [r2_164_TrMRF]", "folding stability dG unfold", 0.728]
]}

Here is another sequence to look at.
[in] Name the reported folding stability dG unfold value associated with the sequence SAGGSAGGSAGGSITITWNPESGTVKIKPPNNKKEIEIPAENMTPSQIIDQAKDNGVEVSAGGSAGGSAGGS [r4_49_TrROS]
[out] 0.935

----------
assay: folding stability dG unfold from trypsin proteolysis; higher = more stable
property label: folding stability dG unfold (kcal/mol)
Quick reminder: number only, in kcal/mol, skip the unit.

Solved cases below.
{"columns": ["sequence data", "folding stability dG unfold, kcal/mol"],
 "data": [
  ["SAGGSAGGSAGGPDFKIEPVEKKGNYELYKAYIPETGEEFFLVYYPNPKEVKIYPSDYLSAGGSAGGSAGGS [r10_172_TrMRF]", 0.754],
  ["SAGGSAGGSAGGGMVIVTREPENLTFTVYREDPSTGKLRRIGTFPVSPDELEKVLALLSSAGGSAGGSAGGS [r10_275_JUSTAS]", 1.77],
  ["SASFTLTPVTVTLSPDPETGAILAPVLATAGDHPVFGLAYVDPLDPSRAYYRIYYPPSDLVEYAVVPLPSAG [r14_178_TrMRF]", 0.469]
]}

[in] Name the reported folding stability dG unfold value associated with the sequence SAGGAPGVPSVTVIPFDPSTGRALALVVDGDRVYVISSAVPLEVLRELGVDRVEPLPDGTLVAVSLASAGGS [r8_382_TrMRF]
[out] 1.13

----------
assay: folding stability dG unfold from chymotrypsin proteolysis; higher = more stable
Give criterion met when the value for folding stability dG unfold is at least 3 kcal/mol. Give criterion not met when it is less.

// known answers, use as guide
{"columns": ["sequence data", "discrete label"],
 "data": [
  ["SAGGSAGGSNWIEKAINEAMKQHPPGQERKVPIEIYNPNNNKPIGKIPIRIRMDKDGPMEIEISAGGSAGGS [r20_151_TrROS]", "criterion not met"],
  ["SAGGPDNIRIDLKIEPTGDSVKITFPIYNPNGSPIKVEMEYQRVGGKKFFRMKIEFGGRPIELWIPISAGGS [r16_476_TrROS]", "criterion met"],
  ["SAGGSAGGSVEDVVKKENVEKAEVKPEPNPPVTLTKITSKNPNSNTTLTGTLVVVDPKNGLLLSAGGSAGGS [r12_133_JUSTAS]", "criterion not met"],
  ["SAGGSAGGSAGGSPEFKIVSVEYDPETGLVTLEIEREDGSTLRFVFDKDGKLVRVEELPSAGGSAGGSAGGS [r4_259_TrROS_Hall]", "criterion met"],
  ["SMMYLVNLRVEVYKDGKLVEEKEIAIAAPVEEALKIAEAIKESHPDAEVKVEIEVYEIPEDDPEFKEAFASA [r9_782_TrMRF]", "criterion not met"],
  ["SAGGSAGGSAGGSPVRVKLKFKKKFTVLLPLTDEDDEILDVEKEYTVEITLEVTLPPDLSAGGSAGGSAGGS [r4_326_TrMRF]", "criterion met"]
]}

[in] For this sequence, is measured folding stability dG unfold 3 kcal/mol or higher? SAGGSAKKVVLLTIPPSANLPPNSKLVVKFPNGKEKTYKFNDKPVVILLVTDNNGNFSFGVSVEDKSAGGSA [r15_992_TrMRF]
[out] criterion met

[in] For this sequence, is measured folding stability dG unfold 3 kcal/mol or higher? SAGGMEIKIENIEINPDKKTIQYNFEIYHDGQPFKMDISIEVDPKNGLYKITVTYPDFPGVKHTLYIPSAGG [r13_615_TrROS]
[out] criterion met

[in] For this sequence, is measured folding stability dG unfold 3 kcal/mol or higher? SMILDVPGEQLDEALAEIRAAVAAGAPPVTIRMKLSPEDLKKAKAAFEALGMTVTPLPEPGVWEFTVELRSA [r9_600_JUSTAS]
[out] criterion met

[in] For this sequence, is measured folding stability dG unfold 3 kcal/mol or higher? SMSREELREYARAHPDRPLALILPGKKTLLLFDPATGAEREEDITSVEEAKERLAAQPVAVVEVVSAELLSA [r9_775_JUSTAS]
[out] criterion not met

[in] For this sequence, is measured folding stability dG unfold 3 kcal/mol or higher? SAGMGATLVSESEEEIDSSGVRKLTYRSPGSLLVETLYPDGTVPVYVIDPSTGKVVEERVFHVPPDVPLSAG [r14_676_JUSTAS]
[out] criterion not met

[in] For this sequence, is measured folding stability dG unfold 3 kcal/mol or higher? SAGGSAGGSAGGSKDERTLTLRLRVTTPIYGTDADGNPLEPIEVTKEYELTVTVPADLLSAGGSAGGSAGGS [r4_425_TrMRF]
[out] criterion not met

[in] For this sequence, is measured folding stability dG unfold 3 kcal/mol or higher? SGSSLLSETTEFVELPDDTFATVSTSTYYIPGSGEIVTKTTVTIYPPTGPPVTTTYTSTTTPEGVLVTESSA [r9_856_JUSTAS]
[out] criterion met
